Property: growth; scope: individual compounds
system: A549/ATCC NSCLC; test: NCI-60 one-dose screen, 48 h (100 = growth as untreated, 0 = no growth, -100 = all killed); settings: 10 µM unless noted
This is part of a sample that, as a whole, favours compounds with a hit. Of some 83,000 tested, about 20% had one in any assay.

compound | growth, %
Oc1ccccc1OB(Oc1ccccc1O)N(CCCl)CCCl | 67
O=C(C(=O)N1CCCC1)c1cn(CCCCCn2cc(C(=O)C(=O)N3CCCC3)c3ccccc32)c2ccccc12 | 85.2
O=[N+]([O-])c1ccc(/C=C/C=C/c2ccc(S(=O)(=O)F)cc2)c(Cl)c1 | 98.6
Oc1ccc2c3c1O[C@H]1c4[nH]c5ccccc5c4C[C@@]4(O)C(C2)N(CC2CC2)CC[C@]314 | 90
O=CC(Br)C(Br)c1ccccc1 (stereo unspecified) | 97.6
COc1cc[c]([Hg][Cl])cc1 | 94.8
ClCCN(CCCl)c1nc(Cl)c(C2CC(c3ccccc3)=NN2c2ccccc2)s1 (stereo unspecified) | 88.9
C1CN1c1nc(N2CC2)nc(N2CC2)n1 | 59.8
CC(=O)Nc1ccc(Cc2ccc(NC(C)=O)cc2)cc1 | 95
CCOc1ccc(C(O)CN(C)Cc2ccccc2)cc1Cl (stereo unspecified) | 102
Cc1nnc([S-])s1.[Au+].c1ccc([PH+](c2ccccc2)c2ccccc2)cc1 | 74.6
